Values were extracted from patent US8415393B2.

What % hemolysis at given concentration was measured for each of the following?
- System: red blood cells
- measurement.notes: In vitro hemolysis
- Format: cell-based
- recorded.conditions: >800 μM, 1 hour
Write it as a number; the unit % >800 goes unstated.

Fill in the recorded % hemolysis at given concentration for this molecule, with red blood cells as test system: O=C(O)c1ccccc1Nc1cccc(C(F)(F)F)c1 0

Give the reported % hemolysis at given concentration for CC(C)c1cc(O)n(-c2nc3ccccc3s2)n1 (system: red blood cells). 0

Please state recorded % hemolysis at given concentration (tested on red blood cells) of Cc1nn(-c2nc3ccccc3s2)c(O)c1C 0

Please tell me: % hemolysis at given concentration of CC1=NN(c2nc3ccc(Cl)cc3s2)C(=O)C1 , system red blood cells? 0

# value lookup — system red blood cells, readout % hemolysis at given concentration, item Cc1noc(C)c1C(=O)Nc1nc2ccc(Cl)cc2s1 0

Please provide the recorded % hemolysis at given concentration for CC1=NN(c2nc3ccccc3s2)C(=O)C1 , tested on red blood cells. 0

Could you share what % hemolysis at given concentration was measured for CC(C)(C)C1=NN(c2nc3ccc(Cl)cc3s2)C(=O)C1 , tested on red blood cells? 0
